Overview of recorded selectivity ratio for various molecules
PROTOCOL TEXT: Safety index, ratio of IC50 for african green monkey Vero cells to IC50 for Entamoeba histolytica HM-1:IMSS
Assay type: toxicity, cell-based
CONDITION SUMMARY: read-out: Ratio IC50

Query: Can you look up the measured selectivity ratio of COc1ccc(C2ON=C(c3ccc(C)cc3)O2)cc1 (configuration not stated) for me?
Response: > 100

Query: Proceed to Cc1ccc(C2=NOC(C)(c3ccccc3)O2)cc1 (configuration not stated)
Response: > 100
